System: HepG2
Assay: Cytotoxicity against human HepG2 cells by tetrazolium salt based quantitative colorimetric assay
Format: functional, cell-based
assay endpoint: IC50

Please list IC50 recorded for the molecule `C=C(C)[C@H]1[C@H](OC(C)=O)C[C@H](C)[C@@]12CC=C(C)[C@@H](O)C2`
> 10 µM

Please list IC50 recorded for the molecule `COc1ccc([C@@H]2SS[C@@]34C[C@]5(O)[C@H](O)C=C[C@@H](O)[C@@H]5ON3C(=O)[C@@H]2N(C)C4=O)c(O)c1OC`
> 10 µM

Please list IC50 recorded for the molecule `C=C(C)[C@H]1[C@H](OC(C)=O)C[C@H](C)[C@@]12CC=C(CO)[C@@H](O)C2`
> 10 µM

Please list IC50 recorded for the molecule `COc1ccc([C@@H]2SS[C@@]34C[C@]5(O)[C@H](Cl)C=C[C@@H](O)[C@@H]5ON3C(=O)[C@@H]2N(C)C4=O)c(O)c1OC`
> 10 µM
